Target: Angiotensin-converting enzyme (ACE) from rabbit lung (Oryctolagus cuniculus, UniProt P12822)
Sequence (P12822 34-1310): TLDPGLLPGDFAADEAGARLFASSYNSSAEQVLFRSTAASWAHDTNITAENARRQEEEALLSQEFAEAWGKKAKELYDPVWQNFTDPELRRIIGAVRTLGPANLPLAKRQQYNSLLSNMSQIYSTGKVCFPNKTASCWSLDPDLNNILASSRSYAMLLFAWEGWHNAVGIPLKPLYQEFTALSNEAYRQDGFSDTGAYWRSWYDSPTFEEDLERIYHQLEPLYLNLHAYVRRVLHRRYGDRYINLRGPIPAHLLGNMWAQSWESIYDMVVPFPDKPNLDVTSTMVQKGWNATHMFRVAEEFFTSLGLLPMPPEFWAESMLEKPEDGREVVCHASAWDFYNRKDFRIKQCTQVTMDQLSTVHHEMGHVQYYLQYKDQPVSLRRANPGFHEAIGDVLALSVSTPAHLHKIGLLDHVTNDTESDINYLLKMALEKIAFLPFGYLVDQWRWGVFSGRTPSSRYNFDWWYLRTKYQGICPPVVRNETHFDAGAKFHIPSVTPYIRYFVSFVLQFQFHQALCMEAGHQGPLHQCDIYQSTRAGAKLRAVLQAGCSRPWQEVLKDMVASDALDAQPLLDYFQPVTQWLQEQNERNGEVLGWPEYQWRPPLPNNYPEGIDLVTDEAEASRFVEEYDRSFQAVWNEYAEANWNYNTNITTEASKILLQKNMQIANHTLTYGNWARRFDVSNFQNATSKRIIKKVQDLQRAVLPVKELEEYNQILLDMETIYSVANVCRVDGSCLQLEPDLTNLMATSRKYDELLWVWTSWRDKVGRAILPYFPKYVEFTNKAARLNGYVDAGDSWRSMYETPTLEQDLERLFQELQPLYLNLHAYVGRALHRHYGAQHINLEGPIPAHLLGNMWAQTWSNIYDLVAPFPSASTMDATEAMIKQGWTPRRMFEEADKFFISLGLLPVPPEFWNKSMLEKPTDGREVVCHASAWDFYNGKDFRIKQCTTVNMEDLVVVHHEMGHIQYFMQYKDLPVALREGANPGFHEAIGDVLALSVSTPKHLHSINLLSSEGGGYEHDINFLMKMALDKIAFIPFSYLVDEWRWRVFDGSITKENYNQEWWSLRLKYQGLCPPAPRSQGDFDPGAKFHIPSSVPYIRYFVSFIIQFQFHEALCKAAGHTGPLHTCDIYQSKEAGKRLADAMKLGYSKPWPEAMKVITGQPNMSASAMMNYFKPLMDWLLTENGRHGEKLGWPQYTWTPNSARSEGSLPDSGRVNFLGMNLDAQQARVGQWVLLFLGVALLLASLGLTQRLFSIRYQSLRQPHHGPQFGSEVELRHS
Peptide text beside a SMILES is read from it.
Each entry below lists one item and its recorded Ki value.
Give just the numeric value; µM need not be written.

Per the record, CC[C@H](C)[C@H](NC(=O)[C@@H](N)C(C)C)C(=O)N1CCC[C@H]1C(=O)N[C@H](C(=O)N[C@@H](CCC(=O)O)C(=O)N1CCC[C@H]1C(=O)N1CCC[C@H]1C(=O)N[C@@H](Cc1c[nH]cn1)C(=O)O)[C@@H](C)O [VIPTEPPH] (H-VIPTEPPH-OH) has Ki of 87

For reference, reported Ki for CC[C@H](C)[C@H](NC(=O)[C@@H](N)C(C)C)C(=O)N1CCC[C@H]1C(=O)N[C@H](C(=O)N[C@@H](CCC(=O)O)C(=O)N1CCC[C@H]1C(=O)N1CCC[C@H]1C(=O)N[C@@H](Cc1c[nH]cn1)C(=O)N[C@@H](C)C(=O)O)[C@@H](C)O [VIPTEPPHA] (H-VIPTEPPHA-OH) stands at 107

Value of measured Ki for the entry CC[C@H](C)[C@H](NC(=O)[C@@H](NC(=O)[C@@H](N)C(C)C)C(C)C)C(=O)N1CCC[C@H]1C(=O)N[C@H](C(=O)N[C@@H](CCC(=O)O)C(=O)N1CCC[C@H]1C(=O)N1CCC[C@H]1C(=O)N[C@@H](Cc1c[nH]cn1)C(=O)N[C@@H](C)C(=O)O)[C@@H](C)O [VVIPTEPPHA] (H-VVIPTEPPHA-OH) : 54

Read the next record carefully.
Please fill in: Ki reported for CC[C@H](C)[C@H](NC(=O)[C@@H](NC(=O)[C@@H](N)C(C)C)C(C)C)C(=O)N1CCC[C@H]1C(=O)N[C@H](C(=O)N[C@@H](CCC(=O)O)C(=O)N1CCC[C@H]1C(=O)N1CCC[C@H]1C(=O)N[C@@H](Cc1c[nH]cn1)C(=O)O)[C@@H](C)O [VVIPTEPPH] (H-VVIPTEPPH-OH) = 45
